# Test System: 5'-nucleotidase (Rattus norvegicus, UniProt P21588)
# Sequence (P21588 whole entry): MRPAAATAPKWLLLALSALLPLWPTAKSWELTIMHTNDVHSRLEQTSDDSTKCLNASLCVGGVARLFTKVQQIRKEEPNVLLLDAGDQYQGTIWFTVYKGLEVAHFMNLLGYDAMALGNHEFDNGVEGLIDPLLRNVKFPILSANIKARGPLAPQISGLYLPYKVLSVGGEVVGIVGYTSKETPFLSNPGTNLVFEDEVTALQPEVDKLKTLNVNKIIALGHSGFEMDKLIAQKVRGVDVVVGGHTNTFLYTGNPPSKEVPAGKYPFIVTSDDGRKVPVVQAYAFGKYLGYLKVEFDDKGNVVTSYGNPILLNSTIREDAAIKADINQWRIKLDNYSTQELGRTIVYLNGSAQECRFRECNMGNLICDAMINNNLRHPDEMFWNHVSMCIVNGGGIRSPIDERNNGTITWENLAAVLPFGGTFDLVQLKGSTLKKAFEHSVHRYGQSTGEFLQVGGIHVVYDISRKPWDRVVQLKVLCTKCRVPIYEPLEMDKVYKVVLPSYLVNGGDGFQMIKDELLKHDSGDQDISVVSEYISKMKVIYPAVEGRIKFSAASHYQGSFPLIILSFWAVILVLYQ
# Assay Name: Inhibition of rat recombinant ecto-5'-nucleotidase expressed in african green monkey COS7 cells using adenosine monophosphate as substrate preincubated for 10 mins before substrate addition measured after 10 mins by capillary electrophoresis
Measured Endpoint: IC50 (µM)
Numeric only. Scale: µM

The value of IC50 measured for the compound Nc1c(O)cc(S(=O)(=O)O)c2cc([N+](=O)[O-])ccc12 turned out to be 31.6

Per the record, Nc1ccc2cc(S(=O)(=O)O)cc(O)c2c1 has IC50 of 10.4

Noted for Nc1cc(S(=O)(=O)O)cc2cc(S(=O)(=O)O)cc(O)c12 : its IC50 reads 76.6

# compound CC1=NN(c2ccc(S(=O)(=O)O)cc2)C(=O)C1 ; its IC50 = 44.3

Consider NS(=O)(=O)O [SULFAMATE] . Its measured IC50 is 77.3

For this compound ( Nc1ccc(S(=O)(=O)O)cc1 ), measured IC50 is 70.1

Recorded result, Nc1ccc(Nc2ccc([N+](=O)[O-])cc2)c(S(=O)(=O)O)c1 , IC50: 72.9

So for Cc1ccc2nc(-c3ccc(N)cc3)sc2c1S(=O)(=O)O , the logged IC50 turned out to be 18.6

---

# Test System: UniProt:P21588
# Assay Name: Inhibition of rat recombinant ecto-5'-nucleotidase expressed in african green monkey COS7 cells using adenosine monophosphate as substrate at 1 mM preincubated for 10 mins before substrate addition measured after 10 mins by capillary electrophoresis
# Assay type: cell-based
# Test Parameters: COS-7
Assignment: determine reported inhibition for the given molecules.
State just the number; it will be interpreted in %.

Lab note: measured inhibition of NC(=O)Nc1ccc2cc(S(=O)(=O)O)cc(O)c2c1 was 40

Item: Nc1cc(S(=O)(=O)[O-])cc2ccccc12.[Na+] | inhibition: 20

In plain terms, Nc1c(S(=O)(=O)O)cc(Br)c2c1C(=O)c1ccccc1C2=O has a documented inhibition of 27

// recorded inhibition for Nc1ccc(S(=O)(=O)O)c2ccccc12 : 28

Notebook: CC1=NN(c2ccccc2)C(=O)C1 [EDARAVONE] , inhibition read as 29

---

# Test System: 5'-nucleotidase (Homo sapiens)
# Assay Name: Inhibition of human recombinant ecto-5'-nucleotidase expressed in african green monkey COS7 cells using adenosine monophosphate as substrate preincubated for 10 mins before substrate addition measured after 10 mins by capillary electrophoresis
Measured Endpoint: IC50 (µM)
A number alone suffices; assume µM.

# IC50 (compound: Nc1ccc(Nc2ccc([N+](=O)[O-])cc2)c(S(=O)(=O)O)c1 ) is 47.6

Looking up NS(=O)(=O)O [SULFAMATE] , I see its IC50 listed as 42.1

Sure, the documented IC50 for CC1=NN(c2ccc(S(=O)(=O)O)cc2)C(=O)C1 is 6.1

Entry Nc1ccc(S(=O)(=O)O)cc1 , IC50 reported as 8.2

# IC50 of Nc1c(O)cc(S(=O)(=O)O)c2cc([N+](=O)[O-])ccc12 = 41

Sample Nc1cc(S(=O)(=O)O)cc2cc(S(=O)(=O)O)cc(O)c12 ; IC50 observed: 21.8

The compound listed as NC(=O)Nc1ccc2cc(S(=O)(=O)O)cc(O)c2c1 has a reported IC50 of 30.5

Reported IC50 of Nc1ccc2cc(S(=O)(=O)O)cc(O)c2c1 : 1.32

IC50 in this record for Cc1ccc2nc(-c3ccc(N)cc3)sc2c1S(=O)(=O)O : 13.5

---

# Test System: 5'-nucleotidase (Homo sapiens, UniProt P21589)
# Sequence (P21589 whole entry): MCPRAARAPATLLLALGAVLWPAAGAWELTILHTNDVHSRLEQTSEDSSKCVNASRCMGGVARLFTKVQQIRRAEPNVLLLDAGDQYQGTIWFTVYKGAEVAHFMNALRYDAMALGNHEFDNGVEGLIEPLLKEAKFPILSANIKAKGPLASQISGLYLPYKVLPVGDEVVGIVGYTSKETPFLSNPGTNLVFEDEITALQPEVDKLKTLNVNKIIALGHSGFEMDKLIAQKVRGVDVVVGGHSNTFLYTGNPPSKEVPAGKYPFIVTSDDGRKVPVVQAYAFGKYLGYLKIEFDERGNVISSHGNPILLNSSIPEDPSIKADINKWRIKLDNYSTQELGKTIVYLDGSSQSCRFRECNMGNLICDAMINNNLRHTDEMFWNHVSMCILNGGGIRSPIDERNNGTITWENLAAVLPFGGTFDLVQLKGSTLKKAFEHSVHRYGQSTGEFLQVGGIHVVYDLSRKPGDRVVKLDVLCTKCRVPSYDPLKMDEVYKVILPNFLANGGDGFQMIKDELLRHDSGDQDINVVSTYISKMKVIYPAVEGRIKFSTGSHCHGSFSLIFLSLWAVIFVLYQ
# Assay Name: Inhibition of human recombinant ecto-5'-nucleotidase expressed in african green monkey COS7 cells using adenosine monophosphate as substrate at 1 mM preincubated for 10 mins before substrate addition measured after 10 mins by capillary electrophoresis
# Assay type: cell-based
# Test Parameters: COS-7
Measured Endpoint: inhibition (%)
Quick reminder: number only, in %, skip the unit.

Notebook: Nc1cc(S(=O)(=O)[O-])cc2ccccc12.[Na+] , inhibition read as 35

Per the records, this compound ( Nc1ccc(S(=O)(=O)O)c2ccccc12 ) has inhibition equal to 43

Recorded result, Nc1c(S(=O)(=O)O)cc(Br)c2c1C(=O)c1ccccc1C2=O , inhibition: 4

Sure, the documented inhibition for CC1=NN(c2ccccc2)C(=O)C1 is 15
